Target: T1, recombinant canine β NGF (canine, UniProt Q29074 110-229 (pig entry))
T1 construct: also called canine NGF
T1 chain: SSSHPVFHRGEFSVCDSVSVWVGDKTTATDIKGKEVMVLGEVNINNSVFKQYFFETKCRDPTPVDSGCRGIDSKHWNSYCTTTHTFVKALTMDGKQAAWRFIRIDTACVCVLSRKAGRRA
Assay: SPR (Biacore), mAb captured on goat anti-mouse IgG Fc, canine NGF injected; Expt 2
property label: kon

INSERT INTO results (binder, value_reported) VALUES
  ('PR-1254982 (antibody, mouse IgG1, V domains shown, also called 3F7; ML130-3F7.4A8) VH: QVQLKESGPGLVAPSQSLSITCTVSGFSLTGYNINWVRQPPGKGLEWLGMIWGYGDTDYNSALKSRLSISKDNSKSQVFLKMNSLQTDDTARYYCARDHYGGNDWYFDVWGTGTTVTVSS VL: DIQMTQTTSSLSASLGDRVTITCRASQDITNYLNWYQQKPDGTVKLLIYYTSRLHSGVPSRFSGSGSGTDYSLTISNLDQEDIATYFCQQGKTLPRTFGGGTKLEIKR', '> 1e+07 M⁻¹ s⁻¹'),
  ('PR-1254977 (antibody, mouse IgG1, V domains shown, also called 21D4; ML129-21D4.4A11) VH: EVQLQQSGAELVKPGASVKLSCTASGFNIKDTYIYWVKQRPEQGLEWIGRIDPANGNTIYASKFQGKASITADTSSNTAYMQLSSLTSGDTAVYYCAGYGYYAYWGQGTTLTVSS VL: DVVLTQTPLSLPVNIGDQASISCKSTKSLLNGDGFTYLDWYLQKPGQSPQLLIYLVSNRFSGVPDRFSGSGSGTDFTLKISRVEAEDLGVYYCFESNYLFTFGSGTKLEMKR', '> 1e+07 M⁻¹ s⁻¹'),
  ('PR-1254973 (antibody, mouse IgG2b, V domains shown, also called 2B12; ML129-2B12.5G9) VH: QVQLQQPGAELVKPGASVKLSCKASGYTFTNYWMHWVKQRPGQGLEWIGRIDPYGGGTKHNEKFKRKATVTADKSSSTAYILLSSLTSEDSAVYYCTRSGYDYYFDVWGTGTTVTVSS VL: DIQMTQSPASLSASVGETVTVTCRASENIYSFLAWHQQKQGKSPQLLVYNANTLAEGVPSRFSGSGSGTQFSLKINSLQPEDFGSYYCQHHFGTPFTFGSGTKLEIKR', '> 1e+07 M⁻¹ s⁻¹'),
  ('PR-1254981 (antibody, mouse IgG1, V domains shown, also called 14A9; ML130-14A9.5B12) VH: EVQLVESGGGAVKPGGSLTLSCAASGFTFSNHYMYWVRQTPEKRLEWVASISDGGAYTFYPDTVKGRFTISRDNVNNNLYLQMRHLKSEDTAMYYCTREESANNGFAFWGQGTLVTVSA VL: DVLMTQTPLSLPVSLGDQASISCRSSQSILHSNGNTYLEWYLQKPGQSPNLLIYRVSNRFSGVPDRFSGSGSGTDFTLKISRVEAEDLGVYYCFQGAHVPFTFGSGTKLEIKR', '7.48e+06 M⁻¹ s⁻¹'),
  ('PR-1254980 (antibody, mouse IgG1, V domains shown, also called 23F1; ML129-23F1.4G3) VH: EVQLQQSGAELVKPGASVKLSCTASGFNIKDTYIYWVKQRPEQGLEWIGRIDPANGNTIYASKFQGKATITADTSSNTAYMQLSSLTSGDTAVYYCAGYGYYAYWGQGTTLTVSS VL: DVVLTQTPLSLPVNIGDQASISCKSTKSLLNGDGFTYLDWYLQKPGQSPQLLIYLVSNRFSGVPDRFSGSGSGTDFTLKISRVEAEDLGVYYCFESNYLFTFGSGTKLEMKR', '> 1e+07 M⁻¹ s⁻¹'),
  ('PR-1254972 (antibody, mouse IgG2b, V domains shown, also called 20B10; ML129-20B10.3F4) VH: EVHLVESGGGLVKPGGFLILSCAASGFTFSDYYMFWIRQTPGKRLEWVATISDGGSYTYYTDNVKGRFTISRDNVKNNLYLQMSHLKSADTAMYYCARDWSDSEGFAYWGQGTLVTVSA VL: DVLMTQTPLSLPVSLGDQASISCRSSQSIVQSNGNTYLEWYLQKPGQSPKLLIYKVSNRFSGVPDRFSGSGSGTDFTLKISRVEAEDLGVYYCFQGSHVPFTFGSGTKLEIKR', '> 1e+07 M⁻¹ s⁻¹');

FYI, the data here is from patent US20180362629A1.
